- System name: OsWRKY34 (Oryza sativa, UniProt Q0JBA9 1-250)
- Sequence (Q0JBA9 entry or part of it): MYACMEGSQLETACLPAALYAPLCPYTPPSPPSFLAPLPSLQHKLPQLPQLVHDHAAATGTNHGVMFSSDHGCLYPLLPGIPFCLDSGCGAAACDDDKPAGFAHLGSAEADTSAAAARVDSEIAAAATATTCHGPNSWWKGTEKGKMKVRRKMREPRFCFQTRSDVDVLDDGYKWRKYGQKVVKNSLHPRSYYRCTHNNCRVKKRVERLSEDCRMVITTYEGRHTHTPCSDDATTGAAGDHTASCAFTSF
- Assay method text: protein-binding microarray (RPBM); PBS, 2% BSA, 51.3 ng/ul salmon testes DNA, 50 uM zinc acetate, 200 nM TF, 25 C, 1 h; high values mean tight binding
- Condition label: protein: recombinant; tags: N-terminal polyhistidine and DsRed monomer fusion (pET32a); label: CyDye5-dUTP incorporated in the synthesized complementary strand; 3' TTTTT single-stranded linker to array surface; dsDNA, one strand shown
In all, about 68,000 sequences were measured (“fluorescence intensity (a.u.)”: median about 9,100, highest 2% from about 16,000 on). This is one part of a sample in which the highest values are shown more often than they occur.
Metric name: binding signal

Recorded binding signal, per entry:
| Sequence | binding signal |
| --- | --- |
| ACCACTCCACGCGCCTATATCACCACACGTCACGCTTCCACGGAGTCACCTAGTGCAG | 16700 fluorescence intensity (a.u.) |
| CTCCCTCTATCAAAAAAATGTTTGACGCCGTTGACTTTTTCGGAGTCACCTAGTGCAG | 25600 fluorescence intensity (a.u.) |
| CGCTGTTCAGACGTTGACTCTCGTTGTTTTTATAGTTTTTCGGAGTCACCTAGTGCAG | 14600 fluorescence intensity (a.u.) |
| TTGTTGGGTGGGGACGTGGGGTGGGGTTCATGGAGTGGTTCGGAGTCACCTAGTGCAG | 24800 fluorescence intensity (a.u.) |
| CCATTACCAGAACAGAACAGCAGGTTTTAACCTAACATTCCGGAGTCACCTAGTGCAG | 8110 fluorescence intensity (a.u.) |

From here, focus on the item given below.
**Query** Please tell me: binding signal of `CGCTTCGCTGACGGTTGTGTGTTGGTGGGTGCAGGGGTGCCGGAGTCACCTAGTGCAG` , system OsWRKY34 (Oryza sativa, UniProt Q0JBA9 1-250)?
**Result** 12700 fluorescence intensity (a.u.)

----------
- System name: OsWRKY34 (Oryza sativa, UniProt Q0JBA9 1-250)
- Assay method text: protein-binding microarray (RPBM); PBS, 2% BSA, 51.3 ng/ul salmon testes DNA, 50 uM zinc acetate, 200 nM TF, 25 C, 1 h; high values mean tight binding
- Condition label: protein: recombinant; tags: N-terminal polyhistidine and DsRed monomer fusion (pET32a); label: CyDye5-dUTP incorporated in the synthesized complementary strand; 3' TTTTT single-stranded linker to array surface; dsDNA, one strand shown
Whole data set: some 68,000 sequences, median “fluorescence intensity (a.u.)” near 9,100, cut for the highest 2% near 16,000. What follows is part of a selection rich in the highest values, with near analogues and random picks from the rest.
Entries and their binding signal values follow.

Study these solved cases before continuing.
| Sequence | Metric name | Assay result |
| --- | --- | --- |
| GCTACATCAGCGGCGGAGGTGGAGGTGGAGGGGTAAGGTGCGGAGTCACCTAGTGCAG | binding signal | 11600 fluorescence intensity (a.u.) |
| GAGTGCCTATTCAATTGCCTTTTGTTTGTCAACGTTTCTCCGGAGTCACCTAGTGCAG | binding signal | 8080 fluorescence intensity (a.u.) |
| CCTCTGGTCACGCATTCTACACAGAATCTCTGGTTTTCCCCGGAGTCACCTAGTGCAG | binding signal | 9500 fluorescence intensity (a.u.) |
| TTTGACGTTTTTTCTCGCTGCTATTATCTCCAGGGTGGGGCGGAGTCACCTAGTGCAG | binding signal | 17200 fluorescence intensity (a.u.) |
| AGTAATTTGACTTTTTCCTTAATCAAACTTCTTTAAGTTTCGGAGTCACCTAGTGCAG | binding signal | 10600 fluorescence intensity (a.u.) |
| TTTTGTTCGCTACTATAGGCCCACACGTCTGTGCCCATGGCGGAGTCACCTAGTGCAG | binding signal | 8660 fluorescence intensity (a.u.) |
| TGGTTTGGTTACTGGTTTAGTGCTTGAATTAATGTGGCACCGGAGTCACCTAGTGCAG | binding signal | 18400 fluorescence intensity (a.u.) |
| GGGTGGGAGGGAGGGAGTACATGGTAAGGCCATTCAACAGCGGAGTCACCTAGTGCAG | binding signal | 20200 fluorescence intensity (a.u.) |
| GACTTGATTTTTTTTCTTAATTTGACCTTTTAATTTCAAACGGAGTCACCTAGTGCAG | binding signal | 8080 fluorescence intensity (a.u.) |
| CAGTAATTGTCACTATCTTATTACACATTATTCTGTCCAGCGGAGTCACCTAGTGCAG | binding signal | 8060 fluorescence intensity (a.u.) |

Proceed to the following item.
**Query** Test system OsWRKY34 (Oryza sativa, UniProt Q0JBA9 1-250); read-out binding signal; what value for `GGGCTGGAGATGGAGATGGAGATGGAGATGGAGGGTGGGTCGGAGTCACCTAGTGCAG` ?
**Result** 8660 fluorescence intensity (a.u.)
